- assay_summary: yeast display, Sf9 membrane polyspecificity reagent, FACS + sequencing; frameworks hold sequencing errors
reported_property: polyreactivity (PSR sort gate)

INSERT INTO results (sequence_text, reported_property, value) VALUES
  ('QVQLVESGGGLVQAGGSLRLSCAASGFIFASYAMGWYRQAPWKERELVAAISYRGGTTYYADSVKGRFTISRDNAKNTVYLQMNSLKPEDTAVYYCAADSPENRYNDWGQGTQVTVSS', 'polyreactivity (PSR sort gate)', 'high polyreactivity'),
  ('QVQLVESGGGLVQAGGSLRLSCAASGYIFKYYAMGWYRQAPGKERELVATINYSGGGTYYADSVKGRFTISRDNAKNTVYLQMNSLKPEDTAVYYCAAEHFFWGYDYWGQGTQVTVSS', 'polyreactivity (PSR sort gate)', 'high polyreactivity'),
  ('QVQLVESGGGLVQAGGSLRLSCAASGITFQYYAMGWYRQAPGKERELFARISSSGGRTFYADSVKGRFTISRDNAKNTVYLQMNSLKQEDTAVYYCAAGSLSLSNSTVWFEYDYWGQGTQVSVSS', 'polyreactivity (PSR sort gate)', 'high polyreactivity');

----------
- assay_summary: yeast display, Sf9 membrane polyspecificity reagent, FACS + sequencing; frameworks hold sequencing errors
reported_property: polyreactivity (PSR sort gate)

INSERT INTO measurements (sequence_text, value) VALUES
  ('QVQLVESGGGLVQAGGSLRLSCAASGRTFRYYTMGWYRPAPGKEREFVAAISSTGGTYYADSVKGRFTISRDNAKNTVYLQMNSLKPEDTAVYYCAATFIQVVVNVQLYDYDYWGQGTQVTVSS', 'low polyreactivity'),
  ('QVQLVESGGGLVQAGGSLRLSFAASGLIVTGYAMGWYRQRPGKEREVVAAITSGGGTNYADSVKGRFTISRDNAKNTVDLQMNSLKPEDTAVYYCAVDFGHYYLYSITSYLWYWDGYDYWGQGTQVTVSS', 'low polyreactivity'),
  ('QVQLVESGGGLVQAGGSLRLSCAASGFTFARNAMGWNRQAPGKERELVASITQRGGSTNYADSVKGRFTISRDNAKNTVYFQLNSLKPEDTAVYYCNKASQLYYIQGTYSYGYWGQGSQVTVSS', 'low polyreactivity'),
  ('QFQLVESGRGLVQAGGGLRLSCAASGLTFGYYTMGWYRQAPGKERELVAAINYSGGSTYYADSVKGRFTISRDNAKNTVYLQMNCLKPEDSAVYYCAAEGPVYTTYEYWGQGNQVTVSS', 'low polyreactivity');

----------
- assay_summary: yeast display, Sf9 membrane polyspecificity reagent, FACS + sequencing; frameworks hold sequencing errors
reported_property: polyreactivity (PSR sort gate)

INSERT INTO measurements (sequence_text, value) VALUES
  ('QVQLVESVGGLVQAGGSLRLSCAASGSTLDGNPMGWYRQAPGKERELVAAISRSGTSTYYADSVKGRFTISRDNAKNTVYLQMNSLKPEDTAVYYCNKVGYIAFDYWGQGTQVTVSS', 'low polyreactivity'),
  ('QVQLVESGGGLVQAGGSLRLSCAASGRTFYPYTMGWYRQAPGKEMELVAAITTSTGNTYYADSVKGRFTISRDNAKNNVYLQMNILKPEDTSVYYCAADTVWRLDYWGQGTKVTVSS', 'low polyreactivity');

----------
- assay_summary: yeast display, Sf9 membrane polyspecificity reagent, FACS + sequencing; frameworks hold sequencing errors
reported_property: polyreactivity (PSR sort gate)

INSERT INTO measurements (sequence_text, reported_property, value) VALUES
  ('QVQLVESGGGLVQAGGSLRLSCAASGFIFSNYAMGWYRQAPGKERELVAAISWSGGNTYYADSVKGRFTISRDNAKNTVYLQMNSLKPEDTAVYYCTRVKAYYRWFLPRYQYNYWGQGTQVTVSS', 'polyreactivity (PSR sort gate)', 'high polyreactivity'),
  ('QVQLVESGGGLVQAGGSLRLSCAASGSIFPAYAMGWYRQAPGTERELVAAITFSGGRTYYADSVKGRFTISRDNAKNTVYLQMNSLKPEDTAVYDCAAYGAPSGTGAKYGYWGQGTQVTVSS', 'polyreactivity (PSR sort gate)', 'low polyreactivity'),
  ('QVQLVESGGGLVQAGGSLRLSCAASGRIFPYMGWYRQAPGKERELVAAINASGGRTYYADSVKGRFTISRDNAKNTVYLQMNSLKPEDTAVYYCNAVWSSDTYTHPQYDYWGQGTQVTVSS', 'polyreactivity (PSR sort gate)', 'high polyreactivity'),
  ('QVQLVESGGGLVQAGGSLRLSSAASGFIFTWYAMGWYIQAPGKERELVAAISSSGGRTYYADSVKGRFTISRDNAKNTVYLQMNSLKPEDSAVYYCTAVKFIRQHSEYDYWGQGTLVTVSS', 'polyreactivity (PSR sort gate)', 'high polyreactivity'),
  ('QVQLVESGGGLVQAGGSLRLSCAASGLIFTDYVMGWYRQAPGKEREFVAAITGSAGRTYYADSVKGRFTISRDNAKNTVYLQMNSLKPEDTAVYYCNADYWWWHEYDYWGQGTQVTVSS', 'polyreactivity (PSR sort gate)', 'high polyreactivity'),
  ('QVQLVESGGGLVQAGGSLRLSCAASGRTFIGNAMGWYRQAPGKERELVAGIDSDGSTNYADSVKGRFTISRDNAKNTVYLQMNSLKPEDTAVYYCAAVQGYRFYEYYYWGQGTQVTVSS', 'polyreactivity (PSR sort gate)', 'low polyreactivity'),
  ('QVQLVESGGGLVQAGGSLRLSCAASGLISYRNAMGWYRQAPGKERELVAAISSDGSTYYADSVKGRFTISRDNAKNTVYLQMNSLKPVDTAVYYCAADYREFDAYGAARTLDFDYWGQGTQVTVSS', 'polyreactivity (PSR sort gate)', 'low polyreactivity'),
  ('QLQLVESGGGLVQAGGSLRLSCAASGRIFYPYAMGWYRQAPGKERELVPAIDYSDGNSYYADSVKGRFTISRDNAKNTVYLQMNSLKPEDTAVYYWAVEYTGAWIGVWYDYWGQGTQVTVSS', 'polyreactivity (PSR sort gate)', 'high polyreactivity'),
  ('QLKLEESGGRLVQAGGSLRLSCASSGRTFTYYVMGCYRQAPGKERELVAAISDSGGSTYYADSVKGRFTISRDNAKNTVYLQMNSLKPEDTAVYYCATDSYWYRLREYNYWGQGTQVTVSS', 'polyreactivity (PSR sort gate)', 'high polyreactivity'),
  ('QVQLVESGGGLVQAGGSLRLSCAASGRIFRGYAMGWYRQAPGKERELVARITSGGRTYYADSVKGRFTISRDNAKNTVYLQMNSLKPEDTAVYYCATVGRGYDERHNYWGQGTQVTVSS', 'polyreactivity (PSR sort gate)', 'high polyreactivity'),
  ('QVQLVESGGGLVKAGGSLRLSCAASGFTFRRNAMGWYRQAPGKERELVAAITYNGGTTYYADSVKGRFTISRDNAKNTVYLQMNSLKPEDTAVDYCNAPYGRQGYDYWGQGTQVTVSS', 'polyreactivity (PSR sort gate)', 'low polyreactivity'),
  ('QVQLVESGGGLVQAGGSLRLSCAASGRTFAFNAMGRYRQAPGKEMELVAAISRSGGSTYYADSVKGRFTISRDNAKNTVYLQMNSLKPEDTAVYYCNAYYNRYPGYDYWGQGTQVTVSS', 'polyreactivity (PSR sort gate)', 'high polyreactivity'),
  ('QVQLVESGGGLVQAGGSLRLSCAASGSTFYYYTMGWYRQAPGKEREFVAAITRSGGSTYYADSVKGRFTISRDNSKNTVYFQMNSLKPEDTAVYYCNVDGTSSSPFVQKHKEMDYWGQGTQVTVSS', 'polyreactivity (PSR sort gate)', 'low polyreactivity'),
  ('QVQLVESGGGLVQAGGSLRLSCAASGIIFPYNAMGWYRQAPGKERELVAAITYRDGSTYYADSVKGRFTISRDNAKNTVYLQMNSLKPEDTAVYYCAADRYVYWDLYGYWGQGTQVTVSS', 'polyreactivity (PSR sort gate)', 'low polyreactivity'),
  ('QVQLVESGGGLVQAGGSLRLSCAASGSTFRQYAMGWYRQAPGKERELVAAISSGGRTNYADSVKGRFTISRDNAKNTVYLQMNSLKPEDTAVYYCAADIRRRVPVRGYYYWGQGTQVTVSS', 'polyreactivity (PSR sort gate)', 'high polyreactivity'),
  ('QVQLVESGGGLVQARGSLRLSCAASGSIFQYNAMGWYRQAPGKERELVAAINGGGSTYYADSVKGRFTISRNNAKNTVYLQLTSLNPEDTAVYYCNADAMDEDWRGYWGQGTQVTVSS', 'polyreactivity (PSR sort gate)', 'low polyreactivity'),
  ('QVQLVESGGGLVQAGGSLRLSCAASGTFYGNTMGWYRQAPGKERELVAVISIDVSTNYADSVKGRFTISRDNAKNTVYLQMNSLKPEDTAVYYCAADYLRQFRDYDYWGQGTQVTVSS', 'polyreactivity (PSR sort gate)', 'low polyreactivity'),
  ('QVQLVESGGGLVQAGGSLRLSCAASGSIFADNTMGWSRQSPGKERELVAAITSSGRTYYADSVKGRFTISRDNAKNTVYLQMNSLKPEDTAVYYCAAVIYFHDYSPYYYWGQGTQVTVSS', 'polyreactivity (PSR sort gate)', 'high polyreactivity'),
  ('QVQLVESGGGIVQAGGSLRLSCAASGRIFVLYAMGSYRQAPGKERELVADITVSGGRTYYADSVKGRFTISRDNAKYTVYLQMNSLKPEDTAVYYCAASPRSYYWRYYQEDYWGQGTQVTVSS', 'polyreactivity (PSR sort gate)', 'high polyreactivity'),
  ('QVQLVESGGGLVQAGGSLRLSCAASGLTFYANAMGWYRQAPGKERELVAAITSSGGSTYYADSVKGRFTISRDNAKNTVYLQMNSLKPDDTAVYYCNAYFRPRYGYWGQGTQVTVSS', 'polyreactivity (PSR sort gate)', 'high polyreactivity'),
  ('QVQLVESGGGLVQAGGSLRLICADSGSTFSPNGMGWYTQAHGKERELVAAITSVGSTYYAESVEGRFTISRDNELNTVYFQMNSLQPVDTAVFYCAKGQRDSEEYDYWGQGTQVTVSS', 'polyreactivity (PSR sort gate)', 'low polyreactivity');
